- experimentalTarget: β-receptors of the heart (Felis catus, UniProt Q9TST6)
- Construct: Intravenously injected isoprenaline increased the heart rate and reduced the perfusion pressure; from tissue; host or cells: heart of the anaesthetized, reserpinized, vagotomized cat (in vivo)
- Sequence (Q9TST6 whole entry, the tested form may be a part): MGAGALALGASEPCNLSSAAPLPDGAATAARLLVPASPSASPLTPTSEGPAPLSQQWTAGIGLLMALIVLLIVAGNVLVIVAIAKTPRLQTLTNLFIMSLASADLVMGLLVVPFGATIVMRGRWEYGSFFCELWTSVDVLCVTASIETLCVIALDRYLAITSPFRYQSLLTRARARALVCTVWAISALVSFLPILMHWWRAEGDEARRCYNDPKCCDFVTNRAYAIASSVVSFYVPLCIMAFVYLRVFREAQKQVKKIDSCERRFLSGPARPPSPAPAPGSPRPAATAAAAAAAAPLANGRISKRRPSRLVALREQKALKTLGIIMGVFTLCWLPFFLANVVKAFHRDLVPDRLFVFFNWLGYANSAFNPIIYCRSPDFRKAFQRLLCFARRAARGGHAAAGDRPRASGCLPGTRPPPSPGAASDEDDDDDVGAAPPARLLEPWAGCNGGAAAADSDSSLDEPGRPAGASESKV
- assayExplanation: Intrinsic activity and β-blockade of heart rate response to isoprenaline in the reserpinized cat
- Type: in vivo
- conditionNotes: reserpinized cat, intravenous; read-out: Intrinsic activity % of isoprenaline heart rate response
measure: Emax (%)
Enter your answer as a number in %; do not include the unit.

*Q* Which Emax value belongs to C=CCc1ccccc1OCC(O)CNC(C)C (stereo not shown) [alprenolol, Alprenolol, reference compound] ?
*A* 20

---

Examples of molecules with documented ED50 follow.
- experimentalTarget: peripheral vascular β-receptors (Felis catus)
- Construct: from tissue; host or cells: vascular bed of the blood-perfused leg (paw excluded) of the anaesthetized, reserpinized cat (in vivo)
- Sequence (Q9TST5 whole entry, the tested form may be a part): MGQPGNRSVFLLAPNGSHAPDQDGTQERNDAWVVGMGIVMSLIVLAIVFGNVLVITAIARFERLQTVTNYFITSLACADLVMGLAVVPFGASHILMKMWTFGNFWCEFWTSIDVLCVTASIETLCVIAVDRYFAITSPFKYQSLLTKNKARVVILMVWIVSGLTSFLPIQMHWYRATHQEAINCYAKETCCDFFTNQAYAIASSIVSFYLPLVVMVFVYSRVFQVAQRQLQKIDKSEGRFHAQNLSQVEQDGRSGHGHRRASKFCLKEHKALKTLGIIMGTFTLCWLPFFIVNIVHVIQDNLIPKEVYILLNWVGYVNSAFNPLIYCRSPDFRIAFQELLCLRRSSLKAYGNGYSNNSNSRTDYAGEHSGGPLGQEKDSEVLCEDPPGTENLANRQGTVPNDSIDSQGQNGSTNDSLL
- assayExplanation: Peripheral vascular β-blockade (peripheral vascular resistance, vasodilator response to isoprenaline) in the reserpinized cat
- Type: in vivo
- conditionNotes: reserpinized cat, intravenous, 50% blockade of isoprenaline response (usually 0.1 μg/kg); read-out: β-blockade Peripheral vascular resistance ED50
Expressed in mg/kg, but write only the number.

Completed entries (count: 4):
                                   molecule  numericresult
0  CNC(=O)OCCc1ccc(OCC(O)CNC(C)C)c(Cl)c1 (stereo not drawn)            1.8
1  CC(C)NCC(O)COc1ccc(CCNC(N)=O)cc1 (stereo not drawn)             14
2  CC(C)NCC(O)COc1ccc(CCNC(N)=O)cc1Cl (stereo not drawn)            2.6
3  CC(C)NCC(O)COc1ccc(OCCOC(=O)N(C)C)cc1Cl (stereo not drawn)            1.7

Please find the next molecule below.
*Q* # lookup: ED50 of CNC(=O)OCCc1ccc(OCC(O)CNC(C)C)cc1 (stereo not drawn)
*A* 2.4

---

- experimentalTarget: β-receptors of the heart (Felis catus, UniProt Q9TST6)
- Construct: Intravenously injected isoprenaline increased the heart rate and reduced the perfusion pressure; from tissue; host or cells: heart of the anaesthetized, reserpinized, vagotomized cat (in vivo)
- assayExplanation: Intrinsic activity and β-blockade of heart rate response to isoprenaline in the reserpinized cat
- Type: in vivo
- conditionNotes: reserpinized cat, intravenous, 50% blockade of isoprenaline response (usually 0.1 μg/kg); read-out: β-blockade Heart rate ED50
measure: ED50 (mg/kg)
Numeric only. Scale: mg/kg

*Q* Would you mind telling me what ED50 value was observed for CNC(=O)OCCc1ccc(OCC(O)CNC(C)C)cc1 (stereo not drawn) [CH3 NHCOOC2 H4, H] ?
*A* 0.4

---

- experimentalTarget: β-receptors of the heart (Felis catus)
- Construct: Intravenously injected isoprenaline increased the heart rate and reduced the perfusion pressure; from tissue; host or cells: heart of the anaesthetized, reserpinized, vagotomized cat (in vivo)
- assayExplanation: Intrinsic activity and β-blockade of heart rate response to isoprenaline in the reserpinized cat
- Type: in vivo
- conditionNotes: reserpinized cat, intravenous; read-out: Intrinsic activity % of isoprenaline heart rate response
Emax values for the compounds below.

>>> print(df.to_string())
                                   compound                      experimentaltarget  measure  result
0  CNC(=O)OCCc1ccc(OCC(O)CNC(C)C)cc1 (stereo not drawn) [CH3 NHCOOC2 H4, H]  β-receptors of the heart (Felis catus)     Emax      0%
1  CC(C)NCC(O)COc1ccc(OCCOC(=O)N(C)C)cc1Cl (stereo not drawn) [(CH3)2 NCOOC2 H4 O, Cl]  β-receptors of the heart (Felis catus)     Emax      5%
2  CNC(=O)OCCc1ccc(OCC(O)CNC(C)C)c(Cl)c1 (stereo not drawn) [CH3 NHCOOC2 H4, Cl]  β-receptors of the heart (Felis catus)     Emax      0%
3  CNC(=O)OCCOc1ccc(OCC(O)CNC(C)C)cc1 (stereo not drawn) [CH3 NHCOOC2 H4 O, H]  β-receptors of the heart (Felis catus)     Emax     25%
4  CC(C)NCC(O)COc1ccc(CCNC(N)=O)cc1 (stereo not drawn) [H2 NCONHC2 H4, H]  β-receptors of the heart (Felis catus)     Emax      0%

We next turn to a different compound, shown below.
*Q* Item CC(C)NCC(O)COc1ccc(CCNC(N)=O)cc1Cl (stereo not drawn) [H2 NCONHC2 H4, Cl] has what recorded Emax?
*A* 0%

Entry source: patent US4078146A
